assay: Dye solubility when preparing the coating composition for dye-donating layer formation (ink sheet); format: physicochemical; design: key: A (soluble easily); B (soluble); C (soluble but hardly); settings: dye in coating composition with polyvinylbutyral resin, methyl ethyl ketone/toluene (1/1); three ranks
Observable: Solubility

These recorded examples may help you get a feel for the data.
The compound listed as Cn1nc(C(C)(C)C)c(/N=N/c2nc(C#N)c(C#N)n2C(=O)c2ccccc2)c1N [(4)] shows Solubility equal to A

The compound listed as CC(C)(C)c1nn(-c2ccccc2)c(N)c1/N=N/c1ccc([N+](=O)[O-])cc1 [Comparative Dye 1, reference compound] shows Solubility equal to B

The compound listed as CC(=O)n1c(/N=N/c2c(C(C)(C)C)nn(C)c2N)nc(C#N)c1C#N [(3)] shows Solubility equal to A

The compound listed as Cn1nc(C(C)(C)C)c(/N=N/c2nc(C#N)c(C#N)[nH]2)c1N [Comparative Dye 3, reference compound] shows Solubility equal to B

The compound listed as CN(C)C(=O)n1c(/N=N/c2c(C(C)(C)C)nn(C)c2N)nc(C#N)c1C#N [(2)] shows Solubility equal to A

The compound listed as CCN(CC)C(=O)n1c(/N=N/c2ccc(N(CC)CC)cc2NC(C)=O)nc(C#N)c1C#N [Comparative Dye 2, reference compound] shows Solubility equal to A

The compound listed as COC(=O)n1c(/N=N/c2c(C(C)(C)C)nn(C)c2N)nc(C#N)c1C#N [(5)] shows Solubility equal to A

The compound listed as CCCCN(CCCC)C(=O)c1ccc2c(c1)C(=O)C(c1nc3ccc(C(C)C)cc3cc1O)C2=O (stereo not shown) [Comparative Dye 5, reference compound] shows Solubility equal to B

The compound listed as CCN(CCOc1ccc(C2CCCCC2)cc1)c1ccc(C=C(C#N)C#N)c(C)c1 [Comparative Dye 4, reference compound] shows Solubility equal to A

More entries:
The compound listed as CCN(CC)C(=O)n1c(/N=N/c2c(C(C)(C)C)nn(C)c2N)nc(C#N)c1C#N [Compound (1)] shows Solubility equal to A
